measured-endpoint: IC50 (nM)
// units = nM; emit number, no label

Reported IC50 for hSERT (Homo sapiens (Human)), given CC1(C)NCC(c2ccc(Cl)c(Cl)c2)c2ccc(-c3ccc(C(F)(F)F)nn3)cc21 (single isomer, unassigned) ?
26
